Hello, the source for this data is the domain aggregation screens of Martell et al. (2025), in case you need it.

- Assay details: soluble fraction after stress (log2 fold change); higher = more stays soluble; pooled small domains, quantitative proteomics;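 note: 20 min heating vs room temperature control held 20 min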
- Run parameters: stress: 75 degC
Measured attribute: soluble fraction (log2)

{"Macromolecule sequence": "HMESAQLIINVAGKVSNPGVYQLPQGSRVVDAIEAAGKQLKGVDISDINLARVLVDGEQILVGGV", "Obs value": 0.363}
{"Macromolecule sequence": "HMSGIVPAAPPLRPDLDIKWHTGDKVRHAKWGEGTIVSVKGEGEETELKIAFPGQGIRPFMQKYAPITR", "Obs value": 0.218}
{"Macromolecule sequence": "HMKKASLSTVEKKLMKQNYSNDTMENRLARVESYMFGTVFSSDDTQTRIDRISSAYNAQKSS", "Obs value": -0.0731}
{"Macromolecule sequence": "HMSHISLGQRYKIEGYLQINLKRTQIAKEIGLPKKTVNQEIKRNSNPQTGIYKAEEAHQLYLDRMQKKRK", "Obs value": -0.335}

---

- Assay details: soluble fraction after stress (log2 fold change); higher = more stays soluble; pooled small domains, quantitative proteomics
- Run parameters: stress: 75 degC

{"Macromolecule sequence": "HMTTARERVYKTLQQWIVNGTLLPEERLNDVELARYFSVSRTPVREALQMLAEQKLVKMVPSSGTFVA", "soluble fraction (log2)": -1.44}
{"Macromolecule sequence": "HMSSEMATLRSIVDNKQAEKVHGMMVDMFTASAMVQVYDKVNDENQAKMREMLKTQKGFQRMADFALSKI", "soluble fraction (log2)": -0.143}
{"Macromolecule sequence": "HMFPNSFSEREKEVVDLLLQAKSNKQIAFSLGITNRTVEYHLGNIFAKLGVSSRSEAILTITNYKNQ", "soluble fraction (log2)": -2.35}
{"Macromolecule sequence": "HMNPAYTDSRMKTFLEELPVMKASLSQKHVTRFLVWQEYIGRHPDGYGKSQFFYHLKQNLVAAKG", "soluble fraction (log2)": -0.391}
{"Macromolecule sequence": "HMAIDLPVTTVNGKDYYYYDVQPKETIFSLSQRLGISREEIISYNPGVDGGLKAYTRLYFPVESGL", "soluble fraction (log2)": -1.21}
{"Macromolecule sequence": "HMIVDYPSFVGKTKQELEKWAKENNIIIRYRQLSVTASDKVKAQLPATTTYKRIMKGSSIEVELEL", "soluble fraction (log2)": -2.44}
{"Macromolecule sequence": "HMELTKAELEVMQILWKLKKAFVGDILDRMVEPKPAYNTVSTVVRLLEKKGVVGHESFGKSHRYYPL", "soluble fraction (log2)": -3.66}
{"Macromolecule sequence": "HMIVMPELRGKDLKEAERLLSSHNLRYELVDSVYDKSLAPGVVVEMVPQSGNTVKPGRIIFLSINA", "soluble fraction (log2)": -0.982}

---

- Assay details: soluble fraction after stress (log2 fold change); higher = more stays soluble; pooled small domains, quantitative proteomics
- Run parameters: stress: 75 degC
Label Fulfilled for high-side soluble fraction (log2) (at or above -1) and Not fulfilled for low-side soluble fraction (log2) (below it).

{"Macromolecule sequence": "HMFTEEEMTKLRHELILAGIRLSRELGLQRMSVEKITSAVGIAKGSFYIFFDSKEDFILEIADHANRE", "Group label": "Not fulfilled"}
{"Macromolecule sequence": "HMAAIPEQVSEEVVSAVKASGIDPGKVTKEQWTSLLKGRRTALGSSSGKLFMLSKAPVGYTLKAVNA", "Group label": "Fulfilled"}
{"Macromolecule sequence": "HMGSEISYSEFLNRVEQGQVAAVRLDGEQIFITGPTGEAYQTIQPRNTDVLPDLREAGVEIQAAPQ", "Group label": "Fulfilled"}
{"Macromolecule sequence": "HMDLYIILGLERSATLSDVRRAYRRLARKYHPGINPGDRNSASVFTRVSEAYQVLSDPEQRRRYDSR", "Group label": "Not fulfilled"}
{"Macromolecule sequence": "HMRLYTQDVAVLNRDVIQGEVITSDMVTTVNVHKRTVPTGALNLSEIPGNVAKFNIPASIPITASMVTK", "Group label": "Fulfilled"}
{"Macromolecule sequence": "HMKRLLLPGDLAGVRRHLLDRENSFHILRVLRLARGSTIEAMDDAGNRFSATLAGVKAGRALFDLAAKI", "Group label": "Not fulfilled"}
{"Macromolecule sequence": "HMEKIRIQKYLSERGVMSRRAADSALAEGRIAVNGVTARPGDKIDPSSDTLTIDGRIVTTGTAP", "Group label": "Fulfilled"}
